Test system: Plasmodium falciparum
experiment description: Calibr Malaria Delayed Death Assay SOP
Assay type: functional, organism-based
Design: scale not given: in the data most compounds retested in dose-response had high values
condition context: concentration 4.99e-06 (unit not given; other assays of the set use mol/L)
The whole screen tested about 38,000 compounds, of which about 1,200 (3.2%) showed an effect of 50% or more. The median lay at about -58%. Only a selection was taken, and strong results are over-represented in it overall.
For each of the molecules below, state its Percent Effect.
Answers are plain numbers, in %.

The cases that follow already have their Percent Effect on record.
Cc1nc(N2CCCC2)nc2c1CN(C(C)C)CC2.O=C(O)C(F)(F)F	-39.09
CC(C)(C)c1n[nH]c(C2CN(C(=O)Cn3ccccc3=O)CCO2)n1 (centres undefined)	-54.87

State recorded Percent Effect for all listed molecules.
1. CC(=O)NCCOc1cccc(Br)c1
2. Cc1noc(C)c1CN1C[C@@H]2COC[C@]2(COc2ccc(C#N)cn2)C1
3. Cc1nn(Cn2ccc(C(=O)N3CCCC(C)C3)n2)c(C)c1Cl (centres undefined)
4. Cc1cccc(-n2c(C)cc(=O)[nH]c2=O)c1C

1: -82.47; 2: -26.6; 3: -15.8; 4: -21.52

Okay, here is my list. What is Percent Effect for each of these?
1. CC(C)Nc1nc(N2CCCC2)nc2c1CCN(S(C)(=O)=O)CC2.O=C(O)C(F)(F)F.O=C(O)C(F)(F)F
2. CN(C)c1nc2c(c(N3CCc4ccccc4C3)n1)CCNC2
3. COCCN(C)C(=O)NCCc1coc(-c2ccc(C)cc2)n1
4. Cc1ccc(-c2cc(C(=O)NCCCc3csc(N)n3)[nH]n2)s1
5. Cc1ccc(N2CC[C@H]3C[C@H](C(=O)NCc4ccco4)O[C@H]3C2)nn1.O=C(O)C(F)(F)F
6. Cc1cc(C(=O)NCc2cccnc2N2CCCC(O)C2)c(C)o1 (centres undefined)
7. CC(C)Nc1nc(N2CCCC2)nc2c1CN(S(C)(=O)=O)CC2
8. COc1ccc(-c2csc3c2c(N)nc(=O)n3CCCN(C)C)cc1

1. 51.48
2. 30.67
3. -79.36
4. 65.08
5. -18.7
6. -87.63
7. 50.55
8. 54.04

The measured values listed here are drawn from ChEMBL document CHEMBL3988442.
